# Test system: Human alphaherpesvirus 1
# assay-summary: Antiviral activity against Human herpesvirus 1 infected bovine MDBK cells assessed as concentration required to cause maximum inhibition of virus-induced cytopathic effect
# Assay type: functional
measure: Activity (µg/mL)
Reply numerically in µg/mL, unit not repeated.

Some solved entries appear below for comparison.
# molecule, experimental-value
measured = [
    ("Nc1nc2c(ncn2COCCO)c(=O)[nH]1 [ACYCLOVIR]", 1.6),
    ("O=c1cc(CCl)oc(CN2CCN(c3cccc(Cl)c3)CC2)c1O", 0.8),
    ("O=c1cc(CCl)oc(CN2CCN(c3ccc(Cl)cc3)CC2)c1O", 0.4),
    ("COc1ccc(N2CCN(Cc3oc(CCl)cc(=O)c3O)CC2)cc1", 1.6),
    ("O=c1cc(CCl)oc(CN2CCN(c3cccc(C(F)(F)F)c3)CC2)c1O", 0.8),
    ("O=c1cc(CCl)oc(CN2CCN(c3ccccc3F)CC2)c1O", 0.8),
    ("COc1ccccc1N1CCN(Cc2oc(CCl)cc(=O)c2O)CC1", 0.8),
    ("O=c1cc(CCl)oc(CN2CCN(c3ccc(F)cc3)CC2)c1O", 0.8),
]

Prompt: Recall the recorded Activity for O=c1cc(CCl)oc(CN2CCN(c3ccccc3Cl)CC2)c1O with Human alphaherpesvirus 1 and state it.
Response: 0.4

Prompt: Recall the recorded Activity for COc1cccc(N2CCN(Cc3oc(CCl)cc(=O)c3O)CC2)c1 with Human alphaherpesvirus 1 and state it.
Response: 0.8

Prompt: Recall the recorded Activity for O=c1cc(CCl)oc(CN2CCN(c3ccc(Cl)c(Cl)c3)CC2)c1O with Human alphaherpesvirus 1 and state it.
Response: 0.4

Prompt: Recall the recorded Activity for O=c1cc(CCl)oc(CN2CCN(c3ccc(C(F)(F)F)cc3)CC2)c1O with Human alphaherpesvirus 1 and state it.
Response: 0.8
